The entries below come with measured IC90, HCVpp neutralization values attached.
Target: E1E2 of HCV isolate AMS.4d.20875969 (genotype 4d) (Hepatitis C virus genotype 4d)
Experiment: cell-based or functional assay

>  <BINDER>
AT12-011 (antibody, V domains shown) VH: QVQLVQSGAEVKKPGSSVKVSCKASGGTFSGYGITWVRQAPGQGLEWMGTIIPVSATETYAQRLQGRVTISADEHSTTSYMEVSSLKSEDTALYYCARHDYFWGTPLDIWGQGTMVIVSS VL: EIVLTQSPDFQSVTPKEKVTITCRASQSIGSNLHWYQQKPGQSPKLLIKYASQSFSGVPSRFSGSGSGTDFTLTINSLEAEDAATYFCHQSYNLPRTFGGGTKVEIKR

>  <IC90, HCVpp neutralization>
> 50 µg/mL

$$$$
>  <BINDER>
AT12-007 (antibody, V domains shown) VH: QVQLEQSGAEVKKPGASVKVSCKVSGYTLTELSMHWVRQAPGKGLEWMGSFDPADGERLYAQKFQGRVIMSEDTSTDTAYMELSSLRSEDAAVYYCATAPRMTMFGVIMALDSWGQGTLVTVSS VL: DIQMTQSPSTLSASLGDRVTITCRASQNINKYLAWYQQKPGKAPKLLIYKASNLQSGVPSRFSGSGSGTDFILTISSLQPDDFATYYCQQYTTYSAWTFGQGTNVDIKR

>  <IC90, HCVpp neutralization>
> 50 µg/mL

$$$$
